Cited source: patent US20260184710A1

# test.system: Cbl-b (Homo sapiens, UniProt Q13191)
# Construct: Cbl-b-HiBit KI Jurkat Cells were purchased from Promega; host or cells: Cbl-b-HiBiT knock-in Jurkat cells
# Sequence (Q13191 whole entry): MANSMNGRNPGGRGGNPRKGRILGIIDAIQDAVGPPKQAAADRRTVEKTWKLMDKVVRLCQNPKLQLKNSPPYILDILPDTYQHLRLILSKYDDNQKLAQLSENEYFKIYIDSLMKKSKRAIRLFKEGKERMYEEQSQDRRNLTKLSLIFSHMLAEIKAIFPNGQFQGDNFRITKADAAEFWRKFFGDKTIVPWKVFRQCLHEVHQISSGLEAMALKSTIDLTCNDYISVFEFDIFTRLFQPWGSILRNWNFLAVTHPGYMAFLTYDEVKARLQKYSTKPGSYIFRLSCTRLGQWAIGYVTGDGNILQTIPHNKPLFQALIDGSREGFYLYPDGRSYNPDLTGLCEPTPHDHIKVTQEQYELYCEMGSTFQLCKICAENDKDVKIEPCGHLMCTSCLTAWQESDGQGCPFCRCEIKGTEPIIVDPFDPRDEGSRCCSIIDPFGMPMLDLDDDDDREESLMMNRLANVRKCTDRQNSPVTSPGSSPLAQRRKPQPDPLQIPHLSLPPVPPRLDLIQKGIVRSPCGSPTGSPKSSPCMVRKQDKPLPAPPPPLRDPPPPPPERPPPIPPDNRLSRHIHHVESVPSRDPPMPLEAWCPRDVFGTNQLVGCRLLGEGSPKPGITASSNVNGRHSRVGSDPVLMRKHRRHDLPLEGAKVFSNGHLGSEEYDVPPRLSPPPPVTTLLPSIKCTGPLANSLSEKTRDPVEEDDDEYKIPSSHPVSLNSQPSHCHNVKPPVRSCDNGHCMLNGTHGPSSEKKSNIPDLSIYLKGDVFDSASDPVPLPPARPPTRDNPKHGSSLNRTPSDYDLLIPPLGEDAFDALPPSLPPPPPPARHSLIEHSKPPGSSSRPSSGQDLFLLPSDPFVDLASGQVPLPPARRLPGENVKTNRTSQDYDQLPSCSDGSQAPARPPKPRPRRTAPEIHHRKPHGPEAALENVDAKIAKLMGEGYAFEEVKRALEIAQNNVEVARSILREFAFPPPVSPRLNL
# assay.notes: Cbl-b Degradation Method B (Nano-Glo HiBiT lytic detection)
# Assay type: cell-based
# setup.conditions: Cbl-b-HiBit KI Jurkat Cells, incubated at least 6-24 hours; maximum degradation observed; read-out: Cbl-b Degredation Method B Dmax (%)
result.type: Dmax

- C[C@@H]1c2nc(N3CCC(O[C@H]4CC[C@H](CN5CCN(Cc6cc7c(c(C(F)(F)F)c6)CN(c6cccc(C8(Cc9nncn9C)CC(C#N)C8)c6)C7=O)[C@@H](C)C5)CC4)CC3)ccc2C(=O)N1C1CCC(=O)NC1=O (single isomer, unassigned): > 70%
- Cn1cnnc1CC1(c2cccc(N3Cc4c(cc(N5CC6(CCN(CC7CCN(c8ccc9c(n8)CN(C8CCC(=O)NC8=O)C9=O)CC7)CC6)C5)cc4C(F)(F)F)C3=O)c2)COC1 (stereo not shown): 35 to 70%
- COc1c(N2CCC(C(=O)N3CCC4(CC3)CN(c3cc5c(c(C(F)(F)F)c3)CN(c3cccc(C6(Cc7nncn7C)COC6)c3)C5=O)C4)CC2)ccc2c1CN(C1CCC(=O)NC1=O)C2=O (stereo not shown): < 35%

In the following, a different molecule is considered.
// Input: CC1CN(C[C@H]2CC[C@H](OC3CCN(c4ccc5c(n4)C(C)N(C4CCC(=O)NC4=O)C5=O)CC3)CC2)CCN1Cc1cc2c(c(C(F)(F)F)c1)CN(c1cccc([C@]3(Cc4nncn4C)C[C@@H](C#N)C3)c1)C2=O (stereo partly shown) . Output its Dmax only. 35 to 70%
